measurement_description: xn = mol fraction of the nth substance listed
experimental_conditions: 288.15 K; 98.93 kPa; Liquid; x1 = 0.005
± gives the expanded uncertainty stated by the source.
Can you tell me mass density for the items I'm about to list?
Include the unit after the number when you answer.

Req: I'd like to know its mass density. The compound in question is CC(O)CO (centres undefined) [1,2-propanediol] + O
Resp: 1000.5 ± 1.3 kg/m3

Req: Using the record for OCCCO [propan-1,3-diol] + O , report its mass density.
Resp: 1000.34 ± 1.3 kg/m3

Req: What value of mass density has been recorded for this entry: OCC(O)CO [glycerol] + O
Resp: 1005.11 ± 1.3 kg/m3

Req: # input compound: CCCO [propan-1-ol] + O ; wanted: its mass density
Resp: 996.06 ± 1.3 kg/m3

Reference source for all entries: the NIST ThermoML archive (doi:10.1016/j.jct.2008.07.005)
